B1: KRT33B (parent)
chain: YQSYFKTIEELQQKILCSKSENAR

variants of: B1; test: protein stability index of a GFP-peptide fusion (GPS, HEK-293T) (PSI 1-6); higher = more stable; conditions: c terminus: a fixed tail appended;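 note: lentivirally expressed fusions sorted by FACS into six bins by GFP to DsRed ratio, PSI derived from sequencing read proportions per bin multiplied by bin number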
Outcome label depends on protein stability index relative to 2: at/above gives true, below gives false.

Test whether the variant E21D records protein stability index of 2 or higher.
false

Is protein stability index at least 2? Consider A23D
false

Threshold query (protein stability index >= 2) on K19M
false

protein stability index >= 2 for S20D ?
true

Evaluate L16F : protein stability index at minimum 2?
false

Is protein stability index at least 2? Consider Q2F
true

Item S20W with protein stability index of 2 or above?
false

Is it the case that S20E has protein stability index reaching or exceeding 2?
false

State whether the measured protein stability index reaches 2, counting equality as reaching it, for N22K
false

Reported protein stability index reaches at least 2 for I15R ?
false

Form field: protein stability index at least 2? Entry: L16G
false
